molecular target: CYP3A4 (Homo sapiens); assay: Inhibition of CYP3A4 at 10 uM; assay type: ADME
Sequence (P08684 whole entry): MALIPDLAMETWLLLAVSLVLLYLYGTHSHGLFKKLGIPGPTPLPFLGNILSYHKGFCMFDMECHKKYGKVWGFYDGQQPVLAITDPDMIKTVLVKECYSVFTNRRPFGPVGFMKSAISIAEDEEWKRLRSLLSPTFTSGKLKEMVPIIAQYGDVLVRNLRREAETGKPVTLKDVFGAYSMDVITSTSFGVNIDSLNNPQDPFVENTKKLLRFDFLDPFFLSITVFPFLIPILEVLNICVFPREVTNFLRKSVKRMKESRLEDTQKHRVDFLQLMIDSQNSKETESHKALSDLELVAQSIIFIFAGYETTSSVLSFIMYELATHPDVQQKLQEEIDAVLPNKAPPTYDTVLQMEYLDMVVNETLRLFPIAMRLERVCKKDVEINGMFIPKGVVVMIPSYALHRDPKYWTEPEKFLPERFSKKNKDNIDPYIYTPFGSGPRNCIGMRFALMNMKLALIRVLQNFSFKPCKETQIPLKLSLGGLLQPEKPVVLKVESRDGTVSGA
METRIC: inhibition at 10 µM (%)

A = O=C(Nc1ccccc1Cl)N1CCC(c2nc(-c3ccc4ccccc4n3)no2)CC1
B = Cn1c(-c2noc(C3CCN(C(=O)Nc4ccccc4Cl)CC3)n2)nc2ccccc21
# input Sort A and B by inhibition at 10 µM descending and give the first. Mark your answer with the label of the selected entry.
# output A

====

assay: Fraction unbound in rat plasma; assay type: ADME, cell-free
METRIC: fraction unbound

A = O=C(Nc1ccccc1Cl)N1CCC(c2nc(-c3ccc4ccccc4n3)no2)CC1
B = Cn1c(-c2noc(C3CCN(C(=O)NC4CCCCC4)CC3)n2)nc2ccccc21
# input Lower value of fraction unbound belongs to which: A or B ? Mark your answer with the label of the selected entry.
# output A
(A: 0.01, B: 0.02)

====

molecular target: Protein smoothened (Homo sapiens, UniProt Q99835); experiment: Displacement of Bodipy-labelled cyclopamine from Smo expressed in COS-1 cells in presence of 2% FBS after 4 to 6 hrs by FACS flow cytometric analysis; type: cell-based
Sequence (Q99835 whole entry): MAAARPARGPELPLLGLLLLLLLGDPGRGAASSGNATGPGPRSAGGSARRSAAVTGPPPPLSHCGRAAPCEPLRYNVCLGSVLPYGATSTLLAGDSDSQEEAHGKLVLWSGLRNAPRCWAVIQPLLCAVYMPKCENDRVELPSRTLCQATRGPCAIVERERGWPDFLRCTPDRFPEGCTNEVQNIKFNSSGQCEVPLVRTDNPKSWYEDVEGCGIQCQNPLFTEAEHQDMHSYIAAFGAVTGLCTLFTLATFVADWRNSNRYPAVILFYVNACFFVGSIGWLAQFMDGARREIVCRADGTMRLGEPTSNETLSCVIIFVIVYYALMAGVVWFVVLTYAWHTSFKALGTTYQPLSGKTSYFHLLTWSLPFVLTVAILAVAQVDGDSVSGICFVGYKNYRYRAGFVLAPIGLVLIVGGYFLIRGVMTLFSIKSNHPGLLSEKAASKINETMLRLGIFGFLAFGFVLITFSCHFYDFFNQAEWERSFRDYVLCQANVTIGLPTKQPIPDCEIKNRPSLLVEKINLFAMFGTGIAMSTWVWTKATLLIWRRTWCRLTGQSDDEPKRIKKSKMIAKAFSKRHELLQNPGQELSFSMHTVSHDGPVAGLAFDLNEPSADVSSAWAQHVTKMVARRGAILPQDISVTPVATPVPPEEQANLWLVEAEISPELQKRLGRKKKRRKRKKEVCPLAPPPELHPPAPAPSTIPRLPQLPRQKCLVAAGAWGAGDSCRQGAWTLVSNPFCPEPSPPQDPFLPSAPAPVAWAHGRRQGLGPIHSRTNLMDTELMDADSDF
pIC50: −log10 of the molar value.
METRIC: pIC50

Reference set, count: 5
1. COc1ccccc1OC(=O)N1CCC(c2nc(-c3ccc4ccccc4n3)no2)CC1	6.96
2. Cn1c(-c2noc(N3CCN(C(=O)NC4CCCCC4)CC3)n2)nc2ccccc21	8.52
3. COc1ccccc1NC(=O)N1CCC(c2nnc(-c3ccc4ccccc4n3)o2)CC1	5.33
4. O=C(NC1CCCCC1)N1CCC(c2nc(-c3ccc4ccccc4n3)no2)CC1	6.55
5. COc1ccccc1NC(=O)N1CCC(c2nc(-c3ccc4ccccc4c3)no2)CC1	5.66

I = O=C(NCC1CCC1)N1CCC(c2nc(-c3ccc4ccccc4n3)no2)CC1
II = O=C(Nc1ccc(Cl)cc1)N1CCC(c2nc(-c3ccc4ccccc4n3)no2)CC1
# input Lower value of pIC50 belongs to which: I or II ? Mark your answer with the label of the selected entry.
# output I

A = CC(C)c1ccccc1NC(=O)N1CCC(c2nc(-c3ccc4ccccc4n3)no2)CC1
B = CS(=O)(=O)c1ccc(NC(=O)N2CCC(c3nc(-c4ccc5ccccc5n4)no3)CC2)c(Cl)c1
# input Sort A and B by pIC50 descending and give the first. Mark your answer with the label of the selected entry.
# output A

====

molecular target: Protein smoothened (Homo sapiens); test: Displacement of Bodipy-labelled cyclopamine from Smo expressed in COS-1 cells in presence of 2% FBS after 4 to 6 hrs by FACS flow cytometric analysis; assay type: cell-based
METRIC: IC50 (nM)

1) O=C(Nc1cnccc1Cl)N1CCC(c2nc(-c3ccc4ccccc4n3)no2)CC1	1100
2) O=C(NC1CCS(=O)(=O)CC1)N1CCC(c2nc(-c3ccc4ccccc4n3)no2)CC1	860
3) O=C(NC1CCOCC1)N1CCC(c2nc(-c3ccc4ccccc4n3)no2)CC1	1700

A = Cn1c(-c2noc(C3CCN(C(=O)NC4CCS(=O)(=O)CC4)CC3)n2)nc2ccccc21
B = N#Cc1ccc(Cl)c(NC(=O)N2CCC(c3nc(-c4ccc5ccccc5n4)no3)CC2)c1
# input Lower value of IC50 belongs to which: A or B ? Mark your answer with the label of the selected entry.
# output B
(B: 320 nM, A: 690 nM)

====

test: Intrinsic clearance in rat liver microsomes assessed per mg of protein; type: ADME, Microsome
METRIC: microsomal CLint (µL/min/mg)

Reference set, count: 2
1) Cn1c(-c2noc(N3CCN(C(=O)NC4CCCCC4)CC3)n2)nc2ccccc21	119
2) Cn1c(-c2noc(C3CCN(C(=O)NC4CCCCC4)CC3)n2)nc2ccccc21	192

1 = O=C(NC1CCS(=O)(=O)CC1)N1CCC(c2nc(-c3ccc4ccccc4n3)no2)CC1
2 = O=C(NC1CCCCC1)N1CCN(c2nc(-c3ccc4ccccc4n3)no2)CC1
# input Sort 1 and 2 by microsomal CLint descending and give the first. Mark your answer with the label of the selected entry.
# output 2
(2: 189 µL/min/mg, 1: 8 µL/min/mg)

====

assay: Lipophilicity, log D of the compound; format: physicochemical; details: octanol/water
METRIC: logD

1. O=C(NC1CCCCC1)N1CCN(c2nc(-c3ccc4ccccc4n3)no2)CC1	2.76
2. CS(=O)(=O)c1ccc(NC(=O)N2CCC(c3nc(-c4ccc5ccccc5n4)no3)CC2)c(Cl)c1	2.8
3. Cn1c(-c2noc(N3CCN(C(=O)NC4CCCCC4)CC3)n2)nc2ccccc21	2.57
4. Cn1c(-c2noc(C3CCN(C(=O)Nc4ccccc4Cl)CC3)n2)nc2ccccc21	2.85
5. O=C(Nc1ccccc1Cl)N1CCN(c2nc(-c3ccc4ccccc4n3)no2)CC1	2.95

====

target: Protein smoothened (Homo sapiens); test: Displacement of Bodipy-labelled cyclopamine from Smo expressed in COS-1 cells in presence of 2% FBS after 4 to 6 hrs by FACS flow cytometric analysis; type: cell-based
METRIC: IC50 (nM)

I = O=C(NC1CCCCC1)N1CCN(c2nc(-c3ccc4ccccc4n3)no2)CC1
II = O=C(OC1CCCCC1)N1CCC(c2nc(-c3ccc4ccccc4n3)no2)CC1
III = C[C@@H]1C[C@H](c2nc(-c3ccc4ccccc4n3)no2)CCN1C(=O)Nc1ccccc1Cl
IV = O=C(NC1CC[S+]([O-])CC1)N1CCC(c2nc(-c3ccc4ccccc4n3)no2)CC1 (stereo not given)
# input Task field, ranking: reported IC50, descending order. Write out the labels following the order that was asked for.
# output IV, III, II, I

====

Each entry below carries its recorded IC50.
target: Protein smoothened (Homo sapiens, UniProt Q99835); assay: Displacement of Bodipy-labelled cyclopamine from Smo expressed in COS-1 cells in presence of 2% FBS after 4 to 6 hrs by FACS flow cytometric analysis; assay type: cell-based

Reference set, count: 4
1) Clc1ccccc1CN1CCC(c2nc(-c3ccc4ccccc4n3)no2)CC1	> 2500 nM
2) Cc1noc(C)c1NC(=O)N1CCC(c2nc(-c3ccc4ccccc4n3)no2)CC1	1500 nM
3) Cn1c(-c2noc(C3CCN(C(=O)Nc4ccccc4Cl)CC3)n2)nc2ccccc21	1000 nM
4) COc1ccccc1NC(=O)N1CCC(c2nc(-c3ccccc3C)no2)CC1	> 2500 nM

# input Entry O=C(Nc1ccccc1Cl)N1CCC(c2nc(-c3cnc4ccccc4c3)no2)CC1 : reported IC50 = ?
# output > 2500 nM

# input Entry COc1ccccc1N(C)C(=O)N1CCC(c2nc(-c3ccc4ccccc4n3)no2)CC1 : reported IC50 = ?
# output 1400 nM

====

target: Protein smoothened (Homo sapiens, UniProt Q99835); test: Inhibition of Bodipy-labelled cyclopamine binding to Smo expressed in COS-1 cells in presence of 20% NHS after 4 to 6 hrs by FACS flow cytometric analysis; format: cell-based
pIC50: −log10 of the molar value.
METRIC: pIC50

1) Cn1c(-c2noc(N3CCN(C(=O)NC4CCCCC4)CC3)n2)nc2ccccc21	7.48

a = O=C(NC1CCOCC1)N1CCC(c2nc(-c3ccc4ccccc4n3)no2)CC1
b = O=C(Nc1ccccc1Cl)N1CCC(c2nc(-c3ccc4ccccc4n3)no2)CC1
# input Sort a and b by pIC50 descending and give the first. Mark your answer with the label of the selected entry.
# output b
(b: 5.46, a: 5.07)

====

target: UniProtKB Q99835; experiment: Displacement of Bodipy-labelled cyclopamine from Smo expressed in COS-1 cells in presence of 2% FBS after 4 to 6 hrs by FACS flow cytometric analysis; format: cell-based
METRIC: IC50 (nM)

Reference set, count: 3
1) O=C(NC1CCC(O)CC1)N1CCC(c2nc(-c3ccc4ccccc4n3)no2)CC1 (configuration not stated)	2500
2) O=C(Nc1ccccc1C(F)(F)F)N1CCC(c2nc(-c3ccc4ccccc4n3)no2)CC1	340
3) COc1ccccc1NC(=O)N1CCC(c2nc(-c3ccc4ccccc4n3)no2)CC1	180

A = COc1ccccc1NC(=O)N1CCC(c2noc(-c3ccc4ccccc4n3)n2)CC1
B = O=C(Nc1ccccc1Cl)N1CCC(c2nc(-c3ccc4cnccc4n3)no2)CC1
# input Sort A and B by IC50 descending and give the first. Mark your answer with the label of the selected entry.
# output A
(A: 15000 nM, B: 2200 nM)

====

Each entry below carries its recorded IC50.
target: Protein smoothened (Homo sapiens, UniProt Q99835); test: Displacement of Bodipy-labelled cyclopamine from Smo expressed in COS-1 cells in presence of 2% FBS after 4 to 6 hrs by FACS flow cytometric analysis; format: cell-based

Reference set, count: 4
1. O=C(c1ccccc1Cl)N1CCC(c2nc(-c3ccc4ccccc4n3)no2)CC1	> 2500 nM
2. CC1(c2nc(-c3ccc4ccccc4n3)no2)CCN(C(=O)Nc2ccccc2Cl)CC1	6000 nM
3. O=C(Nc1ccccc1Cl)N1CCC(c2nc(-c3nccc4ccccc34)no2)CC1	> 2500 nM
4. CCNC(=O)N1CCC(c2nc(-c3ccc4ccccc4n3)no2)CC1	> 2500 nM

# input Provide the documented IC50 with Protein smoothened (Homo sapiens, UniProt Q99835) as the system for CC1CN(C(=O)Nc2ccccc2Cl)CCC1c1nc(-c2ccc3ccccc3n2)no1 (mixture of isomers)
# output 790 nM

# input Provide the documented IC50 with Protein smoothened (Homo sapiens, UniProt Q99835) as the system for O=C(NC1CCNCC1)N1CCC(c2nc(-c3ccc4ccccc4n3)no2)CC1
# output 2900 nM

# input Provide the documented IC50 with Protein smoothened (Homo sapiens, UniProt Q99835) as the system for O=C(OCc1ccccc1)N1CCC(c2nc(-c3ccc4ccccc4n3)no2)CC1
# output > 2500 nM

# input Provide the documented IC50 with Protein smoothened (Homo sapiens, UniProt Q99835) as the system for COc1ccc2nc(-c3noc(C4CCN(C(=O)Nc5ccccc5Cl)CC4)n3)ccc2c1
# output 1800 nM

# input Provide the documented IC50 with Protein smoothened (Homo sapiens, UniProt Q99835) as the system for O=C(Nc1ccccc1Cl)N1CCC(c2nc(-c3ncccn3)no2)CC1
# output > 2500 nM

# input Provide the documented IC50 with Protein smoothened (Homo sapiens, UniProt Q99835) as the system for O=C(Nc1ccccc1Cl)N1CCC(c2nc(-c3ccccc3)no2)CC1
# output > 2500 nM

# input Provide the documented IC50 with Protein smoothened (Homo sapiens, UniProt Q99835) as the system for COc1ccccc1NC(=O)N1CCC(c2nc(-c3ccccn3)no2)CC1
# output > 2500 nM
